# measurement_target: T1, human EphA4 (Homo sapiens, UniProt P54764)
# T1 construct: made in house; not restated for the human SEAP-His protein
# T1 sequence (P54764 20-547): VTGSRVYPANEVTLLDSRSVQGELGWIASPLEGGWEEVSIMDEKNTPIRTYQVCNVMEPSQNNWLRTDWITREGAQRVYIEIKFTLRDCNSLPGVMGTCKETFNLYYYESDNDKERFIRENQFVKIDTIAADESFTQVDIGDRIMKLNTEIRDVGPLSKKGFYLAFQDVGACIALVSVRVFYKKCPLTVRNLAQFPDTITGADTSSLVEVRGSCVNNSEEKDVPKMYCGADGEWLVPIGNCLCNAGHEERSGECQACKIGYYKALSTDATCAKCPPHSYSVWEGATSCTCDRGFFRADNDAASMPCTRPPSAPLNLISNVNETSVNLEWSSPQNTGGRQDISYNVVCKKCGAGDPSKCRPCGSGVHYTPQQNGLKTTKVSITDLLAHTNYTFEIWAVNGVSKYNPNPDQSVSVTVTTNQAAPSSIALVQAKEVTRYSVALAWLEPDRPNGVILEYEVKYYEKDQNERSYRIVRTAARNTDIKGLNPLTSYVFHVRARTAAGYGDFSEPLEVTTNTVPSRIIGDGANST
# method_notes: Affinity of humanized antibodies by SPR (Biacore T200)
# Type: binding
# condition: human EphA4 extracellular region-SEAP-His; 1:1 binding model
measured_quantity: ka
State the value with its unit after it.

Noted for 73 (antibody, V domains shown, synthetic humanized antibody heavy chain variable region sequence; synthetic humanized antibody light chain variable region sequence) VH: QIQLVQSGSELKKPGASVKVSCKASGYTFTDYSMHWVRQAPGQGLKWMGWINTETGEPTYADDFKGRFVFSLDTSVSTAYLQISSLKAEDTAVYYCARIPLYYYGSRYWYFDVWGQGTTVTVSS VL: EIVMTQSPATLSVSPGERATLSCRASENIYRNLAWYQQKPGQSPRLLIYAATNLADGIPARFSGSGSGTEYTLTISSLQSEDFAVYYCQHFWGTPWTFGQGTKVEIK : its ka reads 290000 M⁻¹ s⁻¹

Others:
Lab book: ka of 91 (antibody, V domains shown, constant regions without entry; synthetic humanized antibody light chain variable region sequence; synthetic humanized antibody heavy chain variable region sequence) VL: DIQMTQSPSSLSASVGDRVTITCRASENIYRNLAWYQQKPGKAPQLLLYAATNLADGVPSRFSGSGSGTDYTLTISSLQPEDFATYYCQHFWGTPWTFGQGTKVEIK VH: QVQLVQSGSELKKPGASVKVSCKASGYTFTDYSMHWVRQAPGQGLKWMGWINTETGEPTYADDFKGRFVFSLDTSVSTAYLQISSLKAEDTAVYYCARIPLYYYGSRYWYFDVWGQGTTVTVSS noted as 330000 M⁻¹ s⁻¹

This collection of values is drawn from patent US10428140B2.
